Let's look at some compounds and their measured IC90.
- system_tested: plasma kallikrein (Homo sapiens)
- Construct: from tissue; host or cells: sodium citrate collected human plasma (78% final)
- Sequence (P03952 391-638 limits assumed): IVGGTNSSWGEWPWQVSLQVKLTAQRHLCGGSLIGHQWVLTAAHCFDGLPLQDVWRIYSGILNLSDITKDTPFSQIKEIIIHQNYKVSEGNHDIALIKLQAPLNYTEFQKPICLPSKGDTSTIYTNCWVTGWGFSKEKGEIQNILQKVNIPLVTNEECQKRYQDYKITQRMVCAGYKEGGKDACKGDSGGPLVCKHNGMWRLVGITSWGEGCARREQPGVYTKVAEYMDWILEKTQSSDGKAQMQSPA
- Sequence (P03952 20-390 partner limits assumed): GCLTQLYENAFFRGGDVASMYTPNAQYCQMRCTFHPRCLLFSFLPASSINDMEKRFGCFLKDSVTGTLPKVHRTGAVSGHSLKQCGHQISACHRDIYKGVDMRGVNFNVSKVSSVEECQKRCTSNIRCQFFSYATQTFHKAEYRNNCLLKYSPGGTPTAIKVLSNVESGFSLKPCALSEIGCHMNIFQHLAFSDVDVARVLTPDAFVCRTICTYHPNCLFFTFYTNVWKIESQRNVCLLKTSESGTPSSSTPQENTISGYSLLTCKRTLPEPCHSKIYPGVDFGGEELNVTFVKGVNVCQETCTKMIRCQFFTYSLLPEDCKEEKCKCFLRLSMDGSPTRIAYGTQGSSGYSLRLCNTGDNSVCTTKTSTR
- procedure_details: Neat human plasma assay: contact pathway-activated (FXIIa) plasma, PFR-AMC substrate
- Format: biochemical
- condition_details: citrated human plasma (78% final), 10 nM human FXIIa, 100 μM PFR-AMC, room temperature

[
  {
    "compound": "Cc1ccnc([C@H]2C[C@@H]2c2cc(NCC(C)(C)O)c3ccc(OCc4cn5cc(C6CC6)cc(N6CC(=O)N(C)C6=O)c5n4)cc3n2)n1 [Example 97]",
    "system_tested": "plasma kallikrein (Homo sapiens)",
    "IC90": "≤ 400 nM"
  }
]

Which IC90 reading was recorded for the compound Oc1cc([C@H]2C[C@@H]2c2cccc(Cl)c2)nc2cc(NCc3cn4cc(C5CC5)ccc4n3)ccc12 [Example 51] ? 1500 to 10000 nM

Follow-up item: Cc1ccnc([C@H]2C[C@@H]2c2cc(O)c3cnc(NCc4cn5cc(C6CC6)cc(N6CC(=O)N(C)C6=O)c5n4)nc3n2)n1 (racemic) [Example 86] 1500 to 10000 nM

Follow-up item: Cc1ccnc([C@H]2C[C@@H]2C2=CS(=O)(=O)c3ccc(NCc4cn5cc(C6CC6)cc(N6CC(=O)N(C)C6=O)c5n4)cc3N2)n1 (racemic) [Example 61] 400 to 1500 nM

Follow-up item: Cc1ccnc([C@H]2C[C@@H]2c2cc(OC3COC3)c3ccc(NCc4cn5cc(C6CC6)cc(N6CC(=O)N(C)C6=O)c5n4)cc3n2)n1 (racemic) [Example 33] 400 to 1500 nM

Follow-up item: COc1cc([C@H]2C[C@@H]2c2nccc(C)n2)nc2cc(NCc3cn4cc(C5CC5)cc(N5CC(=O)N(C)C5=O)c4n3)ccc12 (racemic) [Example 21] 1500 to 10000 nM

Follow-up item: Cc1ccnc([C@H]2C[C@@H]2c2cc(=O)c3ccc(NCc4cn5cc(C6CC6)cc(N6CC(=O)N(C)C6=O)c5n4)cc3[nH]2)n1 (racemic) [Example 11] 400 to 1500 nM

Follow-up item: Cc1ccnc([C@H]2C[C@@H]2c2cc(N3CCS(=O)(=O)CC3)c3ccc(NCc4cn5cc(C6CC6)cc(N6CC(=O)N(C)C6=O)c5n4)cc3n2)n1 [Example 37] ≤ 400 nM

Follow-up item: Cc1ccnc([C@H]2C[C@@H]2C2=CS(=O)(=O)c3cnc(NCc4cn5cc(C6CC6)cc(N6CC(=O)N(C)C6=O)c5n4)cc3N2)n1 (racemic) [Example 79] ≤ 400 nM

Follow-up item: Cc1ccnc([C@H]2C[C@@H]2c2ccc3c(C#N)cc(NCc4cn5cc(C6CC6)cc(N6CC(=O)N(C)C6=O)c5n4)cc3n2)n1 (racemic) [Example 82] 1500 to 10000 nM

Follow-up item: Cc1ccnc([C@H]2C[C@@H]2C2=NS(=O)(=O)c3ccc(OCc4cn5cc(C6CC6)ccc5n4)cc3N2)n1 (racemic) [Example 92] 1500 to 10000 nM

Follow-up item: Cc1ccnc([C@H]2C[C@@H]2c2cc(N3CC4(COC4)C3)c3ccc(N(C)Cc4cn5cc(C6CC6)cc(N6CC(=O)N(C)C6=O)c5n4)cc3n2)n1 [Example 98] ≤ 400 nM
